Sourced from patent US20240408169A1

# System: OVCAR3 cells
# test_summary: MTT proliferation assay, OVCAR3;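 note: compound given as an 8- or 10-point series, one day after plating, with exposure covering roughly 3-4 cell doublings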
# Assay type: cell-based
# condition_info: 5 days compound exposure, 1:3 serial dilution starting at 10 μM
*1 amine or outer side, *2 acyl side, *3 side chain or, on linkers, in order; H or OH if unused. Where a SMILES comes first, the peptide text is derived from it. Bridges are numbered along the chain shown (N, C = ends). [ ]: non-standard residue; d: D form. The star is where a group is joined. X98 = CN1CC2(C1)OCc1cc(-c3ccc(Cl)cc3C[C@@H](C(=O)[*:2])N(C)[*:1])ccc12; NMehhhLys(Me) = CN([C@@H](CCCCCCCN(C)[*:3])C(=O)[*:2])[*:1]; cBuCO(3,3-F2-1-CF3) = O=C(C1(C(F)(F)F)CC(F)(F)C1)*; Pro(trans-4-F) = O=C(O)[C@@H]1C[C@@H](F)CN1; Gly(cPr) = N[C@H](C(=O)O)C1CC1
For each of the compounds below, state its GI50.
The reply should be a number in nM, with the unit left off.

-- ask Reported GI50, compound CC(C)C[C@@H]1NC(=O)[C@@H](N(C)C(=O)[C@@H](NC(=O)[C@@H]2C[C@@H](F)CN2C(=O)C2(C(F)(F)F)CC(F)(F)C2)C2CC2)CCCCCCCN(C)C(=O)[C@H](Cc2cc(Cl)ccc2-c2ccc3c(c2)COC32CN(C)C2)N(C)C1=O [Example 355] ({cBuCO(3,3-F2-1-CF3)}-[Pro(trans-4-F)][Gly(cPr)][NMehhhLys(Me)]L[X98]; lactam 3-C) : ____
-- reply 10

-- ask Reported GI50, compound CC(C)C[C@@H]1NC(=O)[C@@H](N(C)C(=O)[C@@H](NC(=O)[C@@H]2C[C@@H](F)CN2C(=O)C2(C(F)(F)F)CCC2)C2CC2)CC=CCCCCN(C)C(=O)[C@H](Cc2cc(F)ccc2-c2cncnc2)N(C)C1=O : ____
-- reply 130
